assay: qHTS for Inhibitors of Vif-A3F Interactions: qHTS; details: HeLa A3F-eYFP + Vif, YFP fluorescence increase; series mostly up to 46.1 µM; also: nearly all actives have a fitted effect of over 65% in size; also: potency is read from the fitted curve at half-maximal effect
The campaign covered roughly 390,000 compounds. About 760 (0.19%) were called active. About 3% were inconclusive and are not listed. The full list was thinned out, with actives kept by preference.

{"compound": "Cc1ccc(CNC(=O)CCc2c(C)nn(-c3ccc(N4CCCC4)nn3)c2C)cc1", "Potency": "inactive"}
{"compound": "O=C1C(Cl)=C(Oc2ccccc2)C(=O)c2ccccc21", "Potency": "10 µM (active)"}
{"compound": "CCCOC(=O)c1c(NC(=O)c2cc3nc(-c4ccc(OC)cc4)cc(C(F)(F)F)n3n2)sc2c1CCCC2", "Potency": "inactive"}
{"compound": "C[n+]1ccc(/C=C/c2c[nH]c3ccccc23)cc1", "Potency": "10 µM (active)"}
{"compound": "COc1ccc(NC(=O)c2sc3nc(-c4cc5cccc(OC)c5oc4=O)[nH]c(=O)c3c2C)cc1", "Potency": "inactive"}
{"compound": "Cc1ccc(NC(=O)c2oc3ccc(S(=O)(=O)N4CCCCC4)cc3c2C)cc1Cl", "Potency": "inactive"}
{"compound": "Cc1ccc(C(=O)C(=S)N2CCOCC2)cc1", "Potency": "inactive"}
{"compound": "Cc1ccc(N2CC(C(=O)Nc3ccc(N(C)C)cc3)CC2=O)cc1Cl (stereo not drawn)", "Potency": "inactive"}
{"compound": "CCOc1ccc2nc(N3CCC(C(=O)Nc4cc(C)ccc4C)CC3)sc2c1", "Potency": "inactive"}
{"compound": "O=c1c2cccnc2n(Cc2cccc(F)c2)c(=O)n1Cc1ccccc1Cl", "Potency": "inactive"}
{"compound": "Fc1ccc(CNc2nc3ccccc3n3nnnc23)cc1", "Potency": "7.94 µM (active)"}
{"compound": "Fc1ccc(-c2nn(-c3ccccc3Cl)c3c2cnc2ccccc23)cc1", "Potency": "inactive"}
{"compound": "N#CCSc1ccccc1NC(=O)CN1C(=O)NC(CCc2ccccc2)C1=O (stereo not drawn)", "Potency": "25.1 µM (active)"}
{"compound": "Cc1nnc(NCc2ccccc2)c2c1nnn2Cc1ccc(F)cc1", "Potency": "inactive"}
{"compound": "O=C(CSc1oc(-c2ccco2)nc1S(=O)(=O)c1ccccc1)c1ccc(Cl)cc1", "Potency": "inactive"}
{"compound": "O=C(OC12CC3CC(CC(C3)C1)C2)c1ccc(NCc2cc(O)ccc2O)cc1", "Potency": "22.4 µM (active)"}
{"compound": "Fc1ccc(CSc2nc(NCc3ccccc3)c3ccccc3n2)cc1", "Potency": "inactive"}
{"compound": "CCOC(=O)c1cc2n(c1N)-c1ccccc1C2=O", "Potency": "7.08 µM (active)"}
{"compound": "Cc1ccc(-n2nc(CO)c(C(=O)NCCc3ccccc3)n2)cc1", "Potency": "inactive"}
{"compound": "Cn1ccc2cc(S(=O)(=O)N3CCCC(C(=O)NCc4ccccc4F)C3)ccc21 (stereo not drawn)", "Potency": "inactive"}
{"compound": "CCc1ccc(N2C(=O)CN(S(=O)(=O)CC)CC2(C)C(=O)NC2CCCCC2)cc1 (stereo not drawn)", "Potency": "inactive"}
{"compound": "CCOC(=O)c1c(C)oc2nc(C)nc(N3CCN(c4ccc(OC)cc4)CC3)c12", "Potency": "inactive"}
{"compound": "COc1ccc(NC(=O)Cn2cc(C(=O)c3ccncc3)c(=O)c3cc(C)ccc32)cc1Cl", "Potency": "inactive"}

----------
experiment: qHTS for Inhibitors of Vif-A3F Interactions: qHTS; settings: HeLa A3F-eYFP + Vif (tagged APOBEC3F with the HIV-1 protein that degrades it), YFP fluorescence increase; series mostly up to 46.1 µM; also: nearly all actives have a fitted effect of over 65% in size
Screen size: about 390,000 compounds; about 760 (0.19%) were called active. Roughly 3% stayed inconclusive and do not appear here. The call rests on the fitted dose curve; in most records, active means well fitted inhibition curve with a large enough effect; inconclusive means small, poorly fitted or top-dose-only effect; inactive means flat fitted curve, though single readings scatter. The entries come from a sample that favours actives as a whole.
Classes used: active, inactive

{"molecule": "CCOc1ccc2oc(=O)cc(CN3CCN(C(=O)c4ccc(F)cc4)CC3)c2c1", "class-assignment": "inactive"}
{"molecule": "Cc1cccc(-n2c(O)c(C=Nc3ccccc3N)c(=O)[nH]c2=O)c1", "class-assignment": "inactive"}
{"molecule": "COc1ccc(NC(=O)c2cnc(Nc3ccc(C)c(Cl)c3)c3ccccc23)cc1OC", "class-assignment": "inactive"}
{"molecule": "CCN(CCCNC(=O)CSc1cc(=O)n(C)c2cc(Cl)ccc12)c1cccc(C)c1", "class-assignment": "inactive"}
{"molecule": "O=C(NC1CC(=O)N(c2ccccc2)C1)c1ccco1 (centres undefined)", "class-assignment": "inactive"}
{"molecule": "Cc1ccc(CNC(=O)c2cccc3c2C(=O)c2ccc(N4CCC(C)CC4)cc2S3(=O)=O)cc1", "class-assignment": "active"}
{"molecule": "Cc1ccc(Cn2c(CCCNC(=O)C3CCCCC3)nc3ccccc32)cc1", "class-assignment": "inactive"}
{"molecule": "NNC(=O)c1oc2nc(-c3ccccc3)cc(-c3ccco3)c2c1N", "class-assignment": "active"}
{"molecule": "Cc1cc(C)c2oc(-c3cccc(NC(=O)c4cccc(F)c4)c3C)nc2c1", "class-assignment": "inactive"}

Numbers sourced from PubChem BioAssay AID602313.
